Numbers sourced from patent US20170022281A1.

# target_or_system: T1, cyno PRLR (Biacore antigen) (cyno, UniProt A0A2K5WXK1 25-234)
# T1 construct: also called cyPRLR
# T1 sequence: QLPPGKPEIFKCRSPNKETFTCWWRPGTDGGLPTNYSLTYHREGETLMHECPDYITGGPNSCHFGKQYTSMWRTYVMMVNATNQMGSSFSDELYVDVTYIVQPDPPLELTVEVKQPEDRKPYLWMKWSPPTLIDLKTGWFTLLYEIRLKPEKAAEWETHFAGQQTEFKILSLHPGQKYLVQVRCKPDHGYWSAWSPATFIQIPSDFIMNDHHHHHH
# method_description: SPR Biacore
Quick reference: kon of the listed items.
Please provide the amount together with its unit, number first.

Reference set, count: 4
binder: LFA102 (antibody, human IgG1, kappa, V domains shown, humanized IgG1 kappa comparator (WO 2008022295)) VH: EVQLVESGGGLVQPGGSLRLSCAVSGFTFSSYGMSWVRQAPGKRLEWVATVSSGGTYTYYPDSVKGRFTISRDNSKNTLYLQMNSLRAEDTAMYYCARHRGNYYATYYYAMDYWGQGTLVTVSS VL: DIVLTQSPDSLAVSLGERATINCKASKSVSTSGYTYMHWYQQKPGQPPKLLIYLASNRESGVPDRFSGSGSGTDFTLTISPVQAEDVATYYCQHSGELPPSFGQGTKLEIKR
kon: 880000 M⁻¹ s⁻¹
//
binder: Ab8 (antibody, V domains shown, murine monoclonal, isotype G2b; also called murine Ab8) VH: EVQLQQSGPELVKPGASVKISCKASGYTFTDYNIHWVKQSHGKSLEWIGYIYPNNDGTGYNQKFKSKATLTVDNSSSTAYMEVRSLTSEDSAVYYCARGDGNYVGDMDYWGQGTSVTVSS VL: DIQMTQSPASLSASVGETVTITCRASENIYSYLAWYQQKQGKPPQLLVYNAKTLAEGVPSRFSGGGSGTQFSLKINSLQPEDFGSYYCQHHYATPFTFGSGTKLEIK
kon: 526000 M⁻¹ s⁻¹
//
binder: Ab53 (antibody, human IgG1, kappa, V domains shown, humanized from Ab7 (back mutations on Ab36); G1; also called Ab4 HC.1b.2 and Ab4 LC.1a) VH: EVQLVQSGAEVKKPGSSVKVSCKASGYTFTSYWIHWVRQAPGQGLEWIGEIDPSDSYTNYNQKFKGRVTITVDKSTSTAYMELSSLRSEDTAVYYCARSFFTNWFAYWGQGTLVTVSS VL: DVVMTQTPLSLSVTPGQPASISCRSSQSLVHSNGNTYLHWYLQKPGQSPQLLIYKVSNRFSGVPDRFSGSGSGTDFTLKISRVEAEDVGVYFCSQSTHVPFTFGGGTKVEIKR
kon: 110000 M⁻¹ s⁻¹
//
binder: chAb7 (antibody, human IgG1, kappa, V domains shown, chimeric, murine variable and human G1/kappa constant regions) VH: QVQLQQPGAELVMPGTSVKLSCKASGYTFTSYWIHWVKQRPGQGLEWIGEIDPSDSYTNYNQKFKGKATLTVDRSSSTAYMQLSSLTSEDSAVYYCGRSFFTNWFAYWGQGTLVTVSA VL: DVVMTQTPLSLPVSLGDQASISCRSSQSLVHSNGNTYLHWYLQKPGQSPKLLIYKVSNRFSGVPDRFSGSGSGTDFTLKINRVEAEDLGVYFCSQSTHVPFTFGSGTKLEIKT
kon: 235000 M⁻¹ s⁻¹

Could you now consider this next binder?
*Q* What value of kon has been recorded for this entry: Ab55 (antibody, human IgG1, kappa, V domains shown, humanized from Ab7 (back mutations on Ab39); G1; also called Ab4 HC.1a.2 and Ab4 LC.1a) VH: EVQLVQSGAEVKKPGSSVKVSCKASGYTFTSYWIHWVRQAPGQGLEWIGEIDPSDSYTNYNQKFKGRATLTVDRSSSTAYMELSSLRSEDTAVYYCGRSFFTNWFAYWGQGTLVTVSS VL: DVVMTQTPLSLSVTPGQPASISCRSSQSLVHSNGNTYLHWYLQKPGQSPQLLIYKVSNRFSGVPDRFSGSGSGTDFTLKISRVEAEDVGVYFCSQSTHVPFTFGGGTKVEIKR
*A* 170000 M⁻¹ s⁻¹
